experimental-system: Rat α6/α3β2β3 nAChR (Rattus norvegicus, UniProt P04757+P12390+P43143)
Construct: amino acids 1 to 237 of the rat α6 subunit protein; amino acids 233 to 499 of the rat α3 subunit protein
Sequence (P43143 31-237 limits assumed): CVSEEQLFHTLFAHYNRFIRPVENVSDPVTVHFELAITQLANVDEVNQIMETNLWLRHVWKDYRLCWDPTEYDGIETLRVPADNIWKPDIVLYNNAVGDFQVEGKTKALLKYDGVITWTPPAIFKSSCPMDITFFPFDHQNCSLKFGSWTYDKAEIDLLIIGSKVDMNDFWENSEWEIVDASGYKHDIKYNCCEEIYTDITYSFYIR
Sequence (P04757 233-499 limits assumed): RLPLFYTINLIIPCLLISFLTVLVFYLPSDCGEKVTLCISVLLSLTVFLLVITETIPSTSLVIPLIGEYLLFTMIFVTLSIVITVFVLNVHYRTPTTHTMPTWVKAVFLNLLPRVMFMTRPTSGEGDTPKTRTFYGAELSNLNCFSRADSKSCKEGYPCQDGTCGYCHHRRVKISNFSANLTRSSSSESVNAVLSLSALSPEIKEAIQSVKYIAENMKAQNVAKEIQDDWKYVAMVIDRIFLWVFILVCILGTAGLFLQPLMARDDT
Sequence (P12390 25-500 limits assumed): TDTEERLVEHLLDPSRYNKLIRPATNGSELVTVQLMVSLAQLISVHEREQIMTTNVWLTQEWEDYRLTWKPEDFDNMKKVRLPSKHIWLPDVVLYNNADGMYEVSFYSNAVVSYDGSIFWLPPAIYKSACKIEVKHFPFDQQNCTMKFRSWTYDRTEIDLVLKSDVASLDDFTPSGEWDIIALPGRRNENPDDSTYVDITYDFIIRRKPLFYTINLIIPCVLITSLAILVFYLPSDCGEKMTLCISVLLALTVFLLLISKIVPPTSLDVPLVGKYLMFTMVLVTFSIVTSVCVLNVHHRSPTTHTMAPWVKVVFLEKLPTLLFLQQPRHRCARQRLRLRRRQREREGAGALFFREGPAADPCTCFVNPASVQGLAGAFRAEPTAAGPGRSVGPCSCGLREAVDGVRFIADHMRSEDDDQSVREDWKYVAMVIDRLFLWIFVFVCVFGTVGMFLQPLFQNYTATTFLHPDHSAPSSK
test-details: cell-based
Where a SMILES comes first, the peptide text is derived from it. Bridges are numbered along the chain shown (N, C = ends).
result-type: IC50 (nM)
Output spec: scalar in nM, unitless text.

The compound listed as CC(C)C[C@@H]1NC(=O)[C@H](Cc2c[nH]cn2)NC(=O)[C@@H]2CSSC[C@H](NC(=O)CN)C(=O)N[C@@H](CSSC[C@@H](C(N)=O)NC(=O)[C@H](CC(C)C)NC(=O)[C@H](CC(N)=O)NC(=O)[C@H](CO)NC(=O)[C@H](Cc3c[nH]cn3)NC(=O)[C@H](C)NC1=O)C(=O)N[C@@H](CO)C(=O)N[C@@H](CC(N)=O)C(=O)N1CCC[C@H]1C(=O)N[C@@H](C(C)C)C(=O)N2 [MII[E11A]] (H-GCCSNPVCHLAHSNLC-NH2; disulfide 2-8, 3-16) shows IC50 equal to 0.16

The compound listed as CC(C)C[C@@H]1NC(=O)[C@H](CC(N)=O)NC(=O)[C@H](CO)NC(=O)[C@H](Cc2c[nH]cn2)NC(=O)[C@H](CCC(=O)O)NC(=O)[C@H](CC(C)C)NC(=O)[C@H](Cc2c[nH]cn2)NC(=O)[C@@H]2CSSC[C@H](NC(=O)CN)C(=O)N[C@@H](CSSC[C@@H](C(N)=O)NC1=O)C(=O)N[C@@H](CO)C(=O)N[C@@H](CC(N)=O)C(=O)N1CCC[C@H]1C(=O)N[C@@H](C)C(=O)N2 [MII[V7A]] (H-GCCSNPACHLEHSNLC-NH2; disulfide 2-8, 3-16) shows IC50 equal to 10.6

###

experimental-system: Rat α3β2 nAChR (Rattus norvegicus, UniProt P04757+P12390)
Construct: expressed in transfected cells; host or cells: Xenopus laevis oocytes, cRNA injected
Sequence (P04757 26-499 limits assumed, one chain of several): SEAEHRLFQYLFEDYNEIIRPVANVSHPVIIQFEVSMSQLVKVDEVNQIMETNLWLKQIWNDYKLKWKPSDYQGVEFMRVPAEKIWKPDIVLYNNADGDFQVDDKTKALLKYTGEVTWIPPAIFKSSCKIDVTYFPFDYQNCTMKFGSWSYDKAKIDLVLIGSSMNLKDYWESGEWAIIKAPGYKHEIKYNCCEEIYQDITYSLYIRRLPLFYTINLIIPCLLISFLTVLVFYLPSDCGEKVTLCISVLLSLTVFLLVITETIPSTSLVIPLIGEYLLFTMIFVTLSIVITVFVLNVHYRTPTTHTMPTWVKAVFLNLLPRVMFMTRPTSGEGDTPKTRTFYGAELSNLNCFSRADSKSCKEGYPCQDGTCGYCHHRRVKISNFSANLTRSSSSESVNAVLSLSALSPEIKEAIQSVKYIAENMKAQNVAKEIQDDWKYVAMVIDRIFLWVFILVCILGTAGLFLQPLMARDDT
test-details: cell-based
Assay type: cell-based
Where a SMILES comes first, the peptide text is derived from it. Bridges are numbered along the chain shown (N, C = ends).
result-type: Ratio IC50 α3β2/IC50 α6/α3β2β3
Enter a number only.

The compound listed as CC(C)C[C@@H]1NC(=O)[C@H](C)NC(=O)[C@@H]2CSSC[C@H](NC(=O)CN)C(=O)N[C@@H](CSSC[C@@H](C(N)=O)NC(=O)[C@H](CC(C)C)NC(=O)[C@H](CC(N)=O)NC(=O)[C@H](CO)NC(=O)[C@H](Cc3c[nH]cn3)NC(=O)[C@H](CCC(=O)O)NC1=O)C(=O)N[C@@H](CO)C(=O)N[C@@H](CC(N)=O)C(=O)N1CCC[C@H]1C(=O)N[C@@H](C(C)C)C(=O)N2 [MII[H9A]] (H-GCCSNPVCALEHSNLC-NH2; disulfide 2-8, 3-16) shows Ratio IC50 α3β2/IC50 α6/α3β2β3 equal to 74.7

The compound listed as CC(C)C[C@@H]1NC(=O)[C@H](C)NC(=O)[C@@H]2CSSC[C@H](NC(=O)CN)C(=O)N[C@@H](CSSC[C@@H](C(N)=O)NC(=O)[C@H](CC(C)C)NC(=O)[C@H](CC(N)=O)NC(=O)[C@H](CO)NC(=O)[C@H](Cc3c[nH]cn3)NC(=O)[C@H](CCC(=O)O)NC1=O)C(=O)N[C@@H](C)C(=O)N[C@@H](CC(N)=O)C(=O)N1CCC[C@H]1C(=O)N[C@@H](C(C)C)C(=O)N2 [MII[S4A; H9A]] (H-GCCANPVCALEHSNLC-NH2; disulfide 2-8, 3-16) shows Ratio IC50 α3β2/IC50 α6/α3β2β3 equal to 105

###

Kindly state Ratio IC50 α3β2/IC50 α6/α3β2β3 for each of the entries shown.
experimental-system: Rat α3β2 nAChR (Rattus norvegicus, UniProt P04757+P12390)
Construct: expressed in transfected cells; host or cells: Xenopus laevis oocytes, cRNA injected
test-details: cell-based
Assay type: cell-based
Where a SMILES comes first, the peptide text is derived from it. Bridges are numbered along the chain shown (N, C = ends).
Enter a number only.

The compound listed as CC(C)C[C@@H]1NC(=O)[C@H](CC(N)=O)NC(=O)[C@H](CO)NC(=O)[C@H](Cc2c[nH]cn2)NC(=O)[C@H](CCC(=O)O)NC(=O)[C@H](CC(C)C)NC(=O)[C@H](Cc2c[nH]cn2)NC(=O)[C@@H]2CSSC[C@H](NC(=O)CN)C(=O)N[C@@H](CSSC[C@@H](C(N)=O)NC1=O)C(=O)N[C@@H](CO)C(=O)N[C@@H](CC(N)=O)C(=O)N[C@@H](C)C(=O)N[C@@H](C(C)C)C(=O)N2 [MII[P6A]] (H-GCCSNAVCHLEHSNLC-NH2; disulfide 2-8, 3-16) shows Ratio IC50 α3β2/IC50 α6/α3β2β3 equal to 17.5

The compound listed as CC(C)C[C@@H]1NC(=O)[C@H](Cc2c[nH]cn2)NC(=O)[C@@H]2CSSC[C@H](NC(=O)CN)C(=O)N[C@@H](CSSC[C@@H](C(N)=O)NC(=O)[C@H](CC(C)C)NC(=O)[C@H](CC(N)=O)NC(=O)[C@H](CO)NC(=O)[C@H](Cc3c[nH]cn3)NC(=O)[C@H](C)NC1=O)C(=O)N[C@@H](CO)C(=O)N[C@@H](CC(N)=O)C(=O)N1CCC[C@H]1C(=O)N[C@@H](C(C)C)C(=O)N2 [MII[E11A]] (H-GCCSNPVCHLAHSNLC-NH2; disulfide 2-8, 3-16) shows Ratio IC50 α3β2/IC50 α6/α3β2β3 equal to 54.5

###

experimental-system: Rat α6/α3β2β3 nAChR (Rattus norvegicus, UniProt P04757+P12390+P43143)
Construct: amino acids 1 to 237 of the rat α6 subunit protein; amino acids 233 to 499 of the rat α3 subunit protein; expressed in transfected cells; host or cells: Xenopus laevis oocytes, cRNA injected (pT7TS/rα6α3 for the chimera)
test-details: cell-based
Format: cell-based
Where a SMILES comes first, the peptide text is derived from it. Bridges are numbered along the chain shown (N, C = ends).
Kindly state IC50 for each of the entries shown.
Output spec: scalar in nM, unitless text.

Observed IC50 on Rat α6/α3β2β3 nAChR (Rattus norvegicus, UniProt P04757+P12390+P43143), entry CC(C)C[C@@H]1NC(=O)[C@H](CC(N)=O)NC(=O)[C@H](CO)NC(=O)[C@H](Cc2c[nH]cn2)NC(=O)[C@H](CCC(=O)O)NC(=O)[C@H](CC(C)C)NC(=O)[C@H](Cc2c[nH]cn2)NC(=O)[C@@H]2CSSC[C@H](NC(=O)CN)C(=O)N[C@@H](CSSC[C@@H](C(N)=O)NC1=O)C(=O)N[C@@H](C)C(=O)N[C@@H](CC(N)=O)C(=O)N1CCC[C@H]1C(=O)N[C@@H](C(C)C)C(=O)N2 [MII[S4A]] (H-GCCANPVCHLEHSNLC-NH2; disulfide 2-8, 3-16) , equals 0.733

Observed IC50 on Rat α6/α3β2β3 nAChR (Rattus norvegicus, UniProt P04757+P12390+P43143), entry CC(C)C[C@@H]1NC(=O)[C@H](C)NC(=O)[C@H](CO)NC(=O)[C@H](Cc2c[nH]cn2)NC(=O)[C@H](CCC(=O)O)NC(=O)[C@H](CC(C)C)NC(=O)[C@H](Cc2c[nH]cn2)NC(=O)[C@@H]2CSSC[C@H](NC(=O)CN)C(=O)N[C@@H](CSSC[C@@H](C(N)=O)NC1=O)C(=O)N[C@@H](CO)C(=O)N[C@@H](CC(N)=O)C(=O)N1CCC[C@H]1C(=O)N[C@@H](C(C)C)C(=O)N2 [MII[N14A]] (H-GCCSNPVCHLEHSALC-NH2; disulfide 2-8, 3-16) , equals 1.06

Observed IC50 on Rat α6/α3β2β3 nAChR (Rattus norvegicus, UniProt P04757+P12390+P43143), entry CC(C)C[C@@H]1NC(=O)[C@H](Cc2c[nH]cn2)NC(=O)[C@@H]2CSSC[C@H](NC(=O)CN)C(=O)N[C@@H](CSSC[C@@H](C(N)=O)NC(=O)[C@H](C)NC(=O)[C@H](CC(N)=O)NC(=O)[C@H](CO)NC(=O)[C@H](Cc3c[nH]cn3)NC(=O)[C@H](CCC(=O)O)NC1=O)C(=O)N[C@@H](CO)C(=O)N[C@@H](CC(N)=O)C(=O)N1CCC[C@H]1C(=O)N[C@@H](C(C)C)C(=O)N2 [MII[L15A]] (H-GCCSNPVCHLEHSNAC-NH2; disulfide 2-8, 3-16) , equals 0.917

Observed IC50 on Rat α6/α3β2β3 nAChR (Rattus norvegicus, UniProt P04757+P12390+P43143), entry CC(C)C[C@@H]1NC(=O)[C@H](CC(N)=O)NC(=O)[C@H](C)NC(=O)[C@H](Cc2c[nH]cn2)NC(=O)[C@H](CCC(=O)O)NC(=O)[C@H](CC(C)C)NC(=O)[C@H](Cc2c[nH]cn2)NC(=O)[C@@H]2CSSC[C@H](NC(=O)CN)C(=O)N[C@@H](CSSC[C@@H](C(N)=O)NC1=O)C(=O)N[C@@H](CO)C(=O)N[C@@H](CC(N)=O)C(=O)N1CCC[C@H]1C(=O)N[C@@H](C(C)C)C(=O)N2 [MII[S13A]] (H-GCCSNPVCHLEHANLC-NH2; disulfide 2-8, 3-16) , equals 0.659

Observed IC50 on Rat α6/α3β2β3 nAChR (Rattus norvegicus, UniProt P04757+P12390+P43143), entry CC(C)C[C@@H]1NC(=O)[C@H](CC(N)=O)NC(=O)[C@H](CO)NC(=O)[C@H](Cc2c[nH]cn2)NC(=O)[C@H](CCC(=O)O)NC(=O)[C@H](CC(C)C)NC(=O)[C@H](Cc2c[nH]cn2)NC(=O)[C@@H]2CSSC[C@H](NC(=O)CN)C(=O)N[C@@H](CSSC[C@@H](C(N)=O)NC1=O)C(=O)N[C@@H](CO)C(=O)N[C@@H](CC(N)=O)C(=O)N[C@@H](C)C(=O)N[C@@H](C(C)C)C(=O)N2 [MII[P6A]] (H-GCCSNAVCHLEHSNLC-NH2; disulfide 2-8, 3-16) , equals 253
